target: T1, recombinant purified FRα (ECL assay calibrator) (human, UniProt P15328 25-234); assay: ECL sandwich on FRα, signal to background; capture 24H8.D3; binder = detection Ab
T1 construct: Calibrator of the ECL sandwich assays; also called FRα calibrator; FRα standard
T1 sequence (P15328 25-234 limits assumed): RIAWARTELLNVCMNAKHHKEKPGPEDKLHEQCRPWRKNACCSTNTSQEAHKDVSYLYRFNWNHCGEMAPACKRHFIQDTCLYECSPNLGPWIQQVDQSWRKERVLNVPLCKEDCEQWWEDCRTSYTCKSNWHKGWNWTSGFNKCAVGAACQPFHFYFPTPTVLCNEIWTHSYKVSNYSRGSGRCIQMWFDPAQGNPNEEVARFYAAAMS
Reported Average of S/B values are given for each entry in this list.
Reply with the value as a number alone.

**Q:** Quickly give me recorded Average of S/B for Monoclonal antibody 6A2.G7 (antibody, mouse IgG1, V domains shown, Murine IgG1 kappa from hybridoma; also called ATCC PTA-123093) VH: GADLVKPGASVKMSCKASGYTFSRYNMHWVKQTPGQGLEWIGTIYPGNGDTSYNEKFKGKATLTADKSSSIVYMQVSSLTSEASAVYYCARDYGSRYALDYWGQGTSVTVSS VL: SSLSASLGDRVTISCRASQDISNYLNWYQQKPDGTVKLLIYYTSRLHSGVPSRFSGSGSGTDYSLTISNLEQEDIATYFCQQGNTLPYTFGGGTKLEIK
**A:** 109
